test: Cytotoxicity against human Corneal fibroblasts assessed cell viability at 80 uM after 24 hrs by Cell Titer-Glo luminescent assay; assay type: cell-based, Corneal fibroblast; settings: read-out: Activity
measurement.name: viability at 24 h, 80 µM

### Prompt Consider the molecule COC(=O)[C@H](CCCNC(=N)N)NC(=O)COc1cc(O)c2c(=O)c(OCC(=O)N[C@@H](CCCNC(=N)N)C(=O)OC)c(-c3ccc(OC)cc3)oc2c1CC=C(C)C and give its measured viability at 24 h, 80 µM.
### Response 69.3%

----------
# MIC annotations
system: Staphylococcus aureus; assay: Antibacterial activity against methicillin-resistant Staphylococcus aureus DM 9808R after 24 hrs by broth microdilution method; assay type: functional

{"molecule": "CCN(CC)CCCCCCOc1cc(O)c2c(=O)c(OCCCCCCN(CC)CC)c(-c3ccc(OC)cc3)oc2c1CC=C(C)C", "reported.result": "3.13 µg/mL"}
{"molecule": "COC(=O)[C@H](Cc1cnc[nH]1)NC(=O)COc1cc(O)c2c(=O)c(OCC(=O)N[C@@H](Cc3cnc[nH]3)C(=O)OC)c(-c3ccc(OC)cc3)oc2c1CC=C(C)C", "reported.result": "> 63.5 µM"}
{"molecule": "COc1ccc(-c2oc3c(CC=C(C)C)c(O)cc(O)c3c(=O)c2O)cc1", "reported.result": "50 µg/mL"}

### Prompt Look at this molecule and give its reported MIC. CCN(CC)CCCCOc1cc(O)c2c(=O)c(OCCCCN(CC)CC)c(-c3ccc(OC)cc3)oc2c1CC=C(C)C
### Response 12.5 µg/mL

### Prompt Now consider CCN(CC)CCOc1cc(O)c2c(=O)c(OCCN(CC)CC)c(-c3ccc(OC)cc3)oc2c1CC=C(C)C .
### Response > 50 µg/mL
